# Test system: HOP-62
# protocol text: NCI tumour cell line growth inhibition, 48 h
The source made the active and inactive calls. Cut-off read from the data, not from the text of the source: active = GI50 up to about 1.1 µM and inactive = higher.
Listed here: items and their measured GI50.

Examples with answers:
C1CCOC2(CCC3(CC2)OCCCCO3)OC1	> 100 µM (inactive)
Cc1ccc(S(=O)(=O)N/N=C(\C(=O)Nc2cccc([N+](=O)[O-])c2)c2nc3ccc([N+](=O)[O-])cc3nc2O)cc1	81.8 µM (inactive)
C=CCn1c(-c2ccc([N+](=O)[O-])cc2)csc1=N	78.2 µM (inactive)

Give the measured GI50 of COc1ccc(S(=O)(=O)n2c3c(c4ccccc42)[C@@H]2[C@@H](CCCN2C(=O)C[S+]([O-])c2ccc(C)cc2)[C@H](Cl)C3)cc1 (stereo partly drawn) . > 100 µM (inactive)

Moving on to CCCCCCCCCCCCCCCCCC(=O)NCC(COP(=O)([O-])OCC[N+](C)(C)C)OC (stereo not drawn) 2.87 µM (inactive)

Moving on to COc1cc(C(C)c2cc3c(cc2OCCNC(=O)COc2cc4c(cc2C(C)c2cc(OC)c(OC)c(OC)c2)OCO4)OCO3)cc(OC)c1OC (stereo not drawn) 58.7 µM (inactive)

Moving on to CCC1CCCCN1CC(C(C)=O)C(c1ccccc1)c1c(O)c2ccccc2oc1=O (stereo not drawn) > 100 µM (inactive)

Moving on to Cc1cc(S(=O)(=O)O)ccc1/N=N/c1ccc(/N=N/c2c(O)ccc3ccccc23)c(C)c1 > 100 µM (inactive)

The origin of these recorded values is ChEMBL document CHEMBL1201862.
